Entries and their melting point values follow.
Structures can show the parent of a compound that is named as a salt.

Answered examples (4):
molecule	melting point
O=c1cc(-c2ccc(C(F)(F)F)cn2)ccn1-c1ccc2c3c([nH]c2c1)CCNCC3 (as salt: hydrochloride) [Example 9, dihydrochloride]	288 to 290 °C
Cl.Cn1c2c(c3ccc(-n4ccc(OCc5ccccc5)cc4=O)nc31)CCNCC2 [Example 77]	180 to 185 °C (dec.)
Cl.Cn1c2c(c3ccc(-n4ccc(-c5ccc(C(F)(F)F)cc5)cc4=O)cc31)CNCCC2 [Example 26]	264 to 270 °C (dec.)
Cl.Cn1c2c(c3ccc(-n4ncc(OCc5ccc(F)cn5)cc4=O)nc31)CCNCC2 [Example 82]	226 to 230 °C (dec.)

Consider the molecule shown here: Cl.Cn1c2c(c3ccc(-n4ccc(OCc5ccccc5)cc4=O)cc31)CNCCC2 [Example 21] What is its recorded melting point?
283 to 287 °C (dec.)

----------
Counter-ions that a name gives are not always drawn.
A short record of Ki observed with human MCH-1 receptor (Homo sapiens (Human), UniProt Q99705) follows.
Sequence (Q99705 whole entry): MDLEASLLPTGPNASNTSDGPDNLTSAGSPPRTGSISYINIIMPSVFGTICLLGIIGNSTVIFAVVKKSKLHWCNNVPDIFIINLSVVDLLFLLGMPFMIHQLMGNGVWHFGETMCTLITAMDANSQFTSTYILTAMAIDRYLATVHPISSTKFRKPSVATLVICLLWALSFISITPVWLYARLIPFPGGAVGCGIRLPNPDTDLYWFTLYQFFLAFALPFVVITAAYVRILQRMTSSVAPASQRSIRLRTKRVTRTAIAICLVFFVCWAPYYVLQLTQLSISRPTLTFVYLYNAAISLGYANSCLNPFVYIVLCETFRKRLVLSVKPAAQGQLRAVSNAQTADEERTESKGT
The answer should read as a number with its unit following.

compound	assay target	Ki
Cl.Cn1c2c(c3ccc(-n4ccc(OCc5ccc(F)cn5)cc4=O)cc31)CCNCC2 [Example 40, hydrochloride]	human MCH-1 receptor (Homo sapiens (Human), UniProt Q99705)	0.0072 µM
Cn1c2c(c3ccc(-n4ccc(OCc5ccccc5)cc4=O)nc31)CCN(C1CCC1)CC2 [Example 86, hydrochloride]	human MCH-1 receptor (Homo sapiens (Human), UniProt Q99705)	0.016 µM
Cn1c2c(c3ccc(-n4ccc(OCc5ccc(Cl)cc5Cl)cc4=O)cc31)CNCCC2 [Example 65, hydrochloride]	human MCH-1 receptor (Homo sapiens (Human), UniProt Q99705)	0.011 µM

Now let's try a different one.
Query Ki on human MCH-1 receptor (Homo sapiens (Human), UniProt Q99705) for Cl.Cn1c2c(c3ccc(-n4ncc(OCc5ccc(C(F)(F)F)nc5)cc4=O)cc31)CCNCC2 [Example 47, hydrochloride]
0.074 µM

----------
Where a name gives a salt, the structure may show the parent alone.
A short record of Ki observed with human MCH-1 receptor (Homo sapiens (Human), UniProt Q99705) follows.
Quick note: give the figure in nM, leave out the unit.

Answered examples (5):
compound	units symbol	observed measurement
Cn1c2c(c3ccc(-n4ccc(OCc5ccc(F)cn5)cc4=O)nc31)CNCCC2 [Example 91, hydrochloride]	nM	15
Cl.Cn1c2c(c3ccc(-n4ccc(-c5ccc(C(F)(F)F)cn5)cc4=O)nc31)CCNCC2 [Example 80, hydrochloride]	nM	69
Cl.Cn1c2c(c3ccc(N4CCN(CCc5ccc(Cl)cc5)CC4=O)cc31)CNCCC2 [Example 64, hydrochloride]	nM	4.6
Cl.Cn1c2c(c3ccc(-n4ccc(OCc5ccc(F)cn5)cc4=O)cc31)CN(C1CCC1)CCC2 [Example 72, hydrochloride]	nM	7.5
Cl.Cn1c2c(c3ccc(-n4ccc(-c5ccc(C(F)(F)F)nn5)cc4=O)nc31)CCNCC2 [Example 79, hydrochloride]	nM	235

Query Ki on human MCH-1 receptor (Homo sapiens (Human), UniProt Q99705) for Cn1c2c(c3ccc(-n4ccc(-c5cnc(C(F)(F)F)nc5)cc4=O)cc31)CCNCC2 [Example 6, dihydrochloride]
131

Query Ki on human MCH-1 receptor (Homo sapiens (Human), UniProt Q99705) for CN1CCCc2c(c3ccc(-n4ccc(OCc5ccc(F)cn5)cc4=O)cc3n2C)C1 [Example 70, hydrochloride]
8.8

Query Ki on human MCH-1 receptor (Homo sapiens (Human), UniProt Q99705) for Cn1c2c(c3ccc(-n4ccc(-c5ccc(C(F)(F)F)cc5)nc4=O)cc31)CCNCC2 [Example 49, hydrochloride]
17

Query Ki on human MCH-1 receptor (Homo sapiens (Human), UniProt Q99705) for Cn1c2c(c3ccc(-n4ccc(-c5ccc(C(F)(F)F)cn5)cc4=O)nc31)CNCCC2 [Example 92, hydrochloride]
20

Query Ki on human MCH-1 receptor (Homo sapiens (Human), UniProt Q99705) for CCN1CCCc2c(c3ccc(N4CCN(CCc5ccc(F)cc5)CC4=O)cc3n2C)C1.Cl [Example 76, hydrochloride]
9.8

Query Ki on human MCH-1 receptor (Homo sapiens (Human), UniProt Q99705) for CN1CCCc2c(c3ccc(N4CCN(CCc5ccc(F)cc5)CC4=O)cc3n2C)C1.Cl [Example 74, hydrochloride]
10

Query Ki on human MCH-1 receptor (Homo sapiens (Human), UniProt Q99705) for CCN1CCc2c(n(C)c3nc(-n4ccc(OCc5ccccc5)cc4=O)ccc23)CC1 [Example 87, hydrochloride]
6.9

Query Ki on human MCH-1 receptor (Homo sapiens (Human), UniProt Q99705) for Cn1c2c(c3ccc(-n4ccc(-c5ccc(C(F)(F)F)cc5)cc4=O)nc31)CNCCC2 [Example 95, hydrochloride]
7.8

Query Ki on human MCH-1 receptor (Homo sapiens (Human), UniProt Q99705) for CCN1CCCc2c(c3ccc(-n4ccc(OCc5ccc(F)cn5)cc4=O)cc3n2C)C1 [Example 73, hydrochloride]
9.4

Query Ki on human MCH-1 receptor (Homo sapiens (Human), UniProt Q99705) for Cl.Cn1c2c(c3ccc(-n4ccc(OCc5ccccc5)cc4=O)nc31)CNCCC2 [Example 90, hydrochloride]
6.4

Query Ki on human MCH-1 receptor (Homo sapiens (Human), UniProt Q99705) for CN1CCc2c(n(C)c3cc(N4CCN(CCc5ccc(F)cc5)CC4=O)ccc23)CC1 [Example 98, dihydrochloride]
13

Query Ki on human MCH-1 receptor (Homo sapiens (Human), UniProt Q99705) for Cn1c2c(c3ccc(-n4ccc(-c5ccc(C(F)(F)F)nc5)cc4=O)cc31)CCNCC2 [Example 4, dihydrochloride]
7.1

Query Ki on human MCH-1 receptor (Homo sapiens (Human), UniProt Q99705) for Cl.Cn1c2c(c3ccc(-n4ccc(OCc5ncc(F)cc5F)cc4=O)cc31)CCNCC2 [Example 102, hydrochloride]
22

Query Ki on human MCH-1 receptor (Homo sapiens (Human), UniProt Q99705) for Cn1c2c(c3ccc(-n4ccc(CCc5ccccc5)nc4=O)cc31)CCNCC2 [Example 101, hydrochloride]
9.9

Query Ki on human MCH-1 receptor (Homo sapiens (Human), UniProt Q99705) for Cn1c2c(c3ccc(-n4ccc(OCc5ccc(Cl)cc5)cc4=O)cc31)CNCCC2 [Example 105, hydrochloride]
7.6

Query Ki on human MCH-1 receptor (Homo sapiens (Human), UniProt Q99705) for Cn1c2c(c3ccc(-n4ccc(OCc5ccc(F)cc5)cc4=O)nc31)CCNCC2 [Example 110, hydrochloride]
12

Query Ki on human MCH-1 receptor (Homo sapiens (Human), UniProt Q99705) for CCN1CCc2c(n(C)c3cc(-n4ccc(OCc5ccccc5)cc4=O)ccc23)CC1.Cl [Example 14, hydrochloride]
9.6

Query Ki on human MCH-1 receptor (Homo sapiens (Human), UniProt Q99705) for Cl.O=c1cc(-c2ccc(C(F)(F)F)cn2)ccn1-c1ccc2c3c([nH]c2c1)CCCNC3 [Example 36, hydrochloride]
12.2

Query Ki on human MCH-1 receptor (Homo sapiens (Human), UniProt Q99705) for Cn1c2c(c3ccc(-n4ccc(OCc5ccc(F)cc5)cc4=O)nc31)CNCCC2 [Example 112, hydrochloride]
8.9

Query Ki on human MCH-1 receptor (Homo sapiens (Human), UniProt Q99705) for Cl.Cn1c2c(c3ccc(-n4ccc(OCc5ncc(Cl)cc5Cl)cc4=O)cc31)CNCCC2 [Example 67, dihydrochloride]
22

Query Ki on human MCH-1 receptor (Homo sapiens (Human), UniProt Q99705) for O=c1cc(-c2ccc(C(F)(F)F)cn2)ccn1-c1ccc2c3c([nH]c2c1)CCNCC3 [Example 9, dihydrochloride]
1370

Query Ki on human MCH-1 receptor (Homo sapiens (Human), UniProt Q99705) for Cn1c2c(c3ccc(-n4ccc(CCc5ccccc5)nc4=O)cc31)CNCCC2 [Example 107, hydrochloride]
9.7

Query Ki on human MCH-1 receptor (Homo sapiens (Human), UniProt Q99705) for O=c1cc(-c2ccc(C(F)(F)F)cc2)ccn1-c1ccc2c3c([nH]c2c1)CCNCC3 [Example 12, hydrochloride]
11.4

Hello, the source for this data is patent US8637501B2, in case you need it.
